Measured values drawn from patent US10759785B2 for this set.

Measured pIC50 values are reported for all entries that follow.
Target: ENaC (Homo sapiens, UniProt P37088+P51168+P51170)
Sequence (P37088 1-669): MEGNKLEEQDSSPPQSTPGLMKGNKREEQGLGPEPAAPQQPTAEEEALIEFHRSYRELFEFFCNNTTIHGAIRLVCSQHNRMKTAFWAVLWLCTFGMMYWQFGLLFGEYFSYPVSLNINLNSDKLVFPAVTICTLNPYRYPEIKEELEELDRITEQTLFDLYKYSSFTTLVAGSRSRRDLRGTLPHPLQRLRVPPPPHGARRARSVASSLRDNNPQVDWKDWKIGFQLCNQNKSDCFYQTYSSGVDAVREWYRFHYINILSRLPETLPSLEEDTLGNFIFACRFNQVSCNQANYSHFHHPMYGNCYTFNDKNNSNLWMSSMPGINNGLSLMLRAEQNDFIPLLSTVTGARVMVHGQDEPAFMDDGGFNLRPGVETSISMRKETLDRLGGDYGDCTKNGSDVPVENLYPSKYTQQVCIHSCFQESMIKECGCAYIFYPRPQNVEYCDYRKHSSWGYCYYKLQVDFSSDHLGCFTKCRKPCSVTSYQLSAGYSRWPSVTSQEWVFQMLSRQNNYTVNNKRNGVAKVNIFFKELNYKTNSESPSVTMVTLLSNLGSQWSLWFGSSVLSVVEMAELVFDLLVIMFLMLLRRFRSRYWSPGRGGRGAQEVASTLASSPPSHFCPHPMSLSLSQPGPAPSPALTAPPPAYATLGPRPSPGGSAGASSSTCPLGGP
Sequence (P51168 1-640): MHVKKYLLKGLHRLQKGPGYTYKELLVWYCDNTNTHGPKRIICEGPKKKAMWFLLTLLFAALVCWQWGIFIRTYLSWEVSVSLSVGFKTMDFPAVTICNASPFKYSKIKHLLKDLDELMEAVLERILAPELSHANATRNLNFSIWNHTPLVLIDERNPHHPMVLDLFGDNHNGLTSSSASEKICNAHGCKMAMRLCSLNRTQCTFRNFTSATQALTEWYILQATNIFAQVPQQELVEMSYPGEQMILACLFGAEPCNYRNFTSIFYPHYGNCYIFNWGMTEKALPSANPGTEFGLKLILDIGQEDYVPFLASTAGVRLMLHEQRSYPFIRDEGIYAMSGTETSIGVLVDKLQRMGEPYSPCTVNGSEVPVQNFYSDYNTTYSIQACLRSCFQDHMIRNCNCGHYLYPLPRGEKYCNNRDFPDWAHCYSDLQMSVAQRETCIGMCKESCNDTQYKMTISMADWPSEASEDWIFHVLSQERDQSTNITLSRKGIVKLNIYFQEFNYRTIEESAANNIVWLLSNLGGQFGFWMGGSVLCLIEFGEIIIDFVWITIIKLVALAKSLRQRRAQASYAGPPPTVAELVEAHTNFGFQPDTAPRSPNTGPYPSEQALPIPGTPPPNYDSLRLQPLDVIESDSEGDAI
Sequence (P51170 1-649): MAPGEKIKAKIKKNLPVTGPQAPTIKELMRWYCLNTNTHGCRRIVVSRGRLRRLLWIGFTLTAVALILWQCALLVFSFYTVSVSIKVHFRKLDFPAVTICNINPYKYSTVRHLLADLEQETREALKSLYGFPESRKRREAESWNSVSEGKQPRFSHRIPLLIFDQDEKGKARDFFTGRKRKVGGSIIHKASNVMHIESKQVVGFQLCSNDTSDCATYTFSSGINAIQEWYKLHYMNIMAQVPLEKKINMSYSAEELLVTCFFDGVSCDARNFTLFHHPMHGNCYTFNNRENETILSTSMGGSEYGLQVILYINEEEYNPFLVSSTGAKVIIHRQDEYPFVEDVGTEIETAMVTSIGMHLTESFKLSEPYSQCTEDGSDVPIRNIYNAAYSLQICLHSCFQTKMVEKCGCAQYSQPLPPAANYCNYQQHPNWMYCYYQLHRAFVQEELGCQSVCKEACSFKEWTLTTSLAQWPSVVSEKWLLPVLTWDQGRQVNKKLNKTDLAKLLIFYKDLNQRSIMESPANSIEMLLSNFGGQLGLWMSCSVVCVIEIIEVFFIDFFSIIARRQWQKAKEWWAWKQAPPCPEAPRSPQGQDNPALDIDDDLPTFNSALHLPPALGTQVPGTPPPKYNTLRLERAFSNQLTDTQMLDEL
Test: Short circuit current assay to determine ENaC blocker potency in human bronchial epithelial cells
Settings: 50% inhibition of total amiloride-sensitive ISC, HBECs, apical addition; read-out: Averages. ENaC Ic50 μm Avg
pIC50: −log10 of the molar value. Structures can show the parent of a compound that is named as a salt.
readout: pIC50

CCn1c(CNC(=O)c2nc(Br)cnc2N)[n+](CC)c2ccc(C(=O)N[C@H]3CCOC3=O)cc21 [Example 18, formate] :: 8.40
CCn1c(CNC(=O)c2nc(Br)cnc2N)[n+](CC)c2ccc(-c3cnn(C4CCN(C(=N)N)CC4)c3)cc21.O=CO.O=C[O-] [Example 22, formic acid formate] :: 8.70
CCn1c(CNC(=O)c2nc(Br)cnc2N)[n+](C)c2ccc(OC(F)(F)F)cc21.O=C[O-] [Example 14, formate] :: 8.52
CCn1c(CNC(=O)c2nc(Br)cnc2N)[n+](CC)c2ccc(C(=O)OC)cc21.[I-] :: 8.70
